The measurements presented in this section are drawn from PubChem BioAssay (NCI).

Hi there, I'd appreciate the recorded GI50 for every entry that follows.
System: SNB-19 CNS
Experiment: NCI tumour cell line growth inhibition, 48 h

As a guide, the following entries are already answered.
>  <molecule>
CN1CCN(CC#Cc2cccc(C(=O)c3cnn(-c4ccc(F)cc4)c3N)c2)CC1

>  <value.reported>
> 25 µM

$$$$
>  <molecule>
Cc1cc2nc3c4cc(Cl)ccc4n(CCN(C)C)c3nc2cc1C

>  <value.reported>
1.92 µM

$$$$
>  <molecule>
CC(=O)[CH-]C(=O)c1ccccc1.CC(=O)[CH-]C(=O)c1ccccc1.CCCCCCCCCCCCCCCCCC(=O)[O-].CCCCCCCCCCCCCCCCCC(=O)[O-].[Ti+4]

>  <value.reported>
17.5 µM

$$$$
>  <molecule>
C=CC(=O)N[C@H]1C=C(C)c2c(-c3cnc4ccccc4c3)c3c(N)ncnc3n2C1

>  <value.reported>
32.4 µM

$$$$
>  <molecule>
O=C(NNc1nc2c(F)cccc2n2cccc12)c1cnccn1

>  <value.reported>
0.545 µM

$$$$

Provide the reported GI50 of each entry below, same order.
1. COc1ccc2cc1Oc1ccc(cc1)C[C@H]1c3cc(c(OC)cc3CCN1C)Oc1c(OC)c(OC)cc3c1[C@H](C2)N(C)CC3
2. Cc1ccn2c3c(c(C(=O)O)c2c1)C(=O)c1ccccc1C3=O
3. CCOc1ccc(S(=O)(=O)/N=C2\C=C(SCC(=O)O)C(=O)c3ccccc32)cc1
4. C=C1CCC2C(/C=C(\C)CCC1O)OC(=O)C2C (stereo not drawn)
5. COC1(C(=O)N2Cc3nc(Cl)nc(N[C@H](C)c4cc(N)cc(C(F)(F)F)c4)c3C2)CCOCC1
6. Nc1n[nH]c2ccc([C@@H]3Nc4ccc5[nH]ncc5c4[C@H]4[C@H]5CCC(C5)[C@H]43)cc12
7. CN(C)CC(=O)N1CCC(c2ccc(NC(=O)c3ncc(C#N)[nH]3)c(C3=CCCCC3)c2)CC1

Resp:
1: 7.55 µM; 2: 4.24 µM; 3: 3.42 µM; 4: > 100 µM; 5: 14.5 µM; 6: 0.515 µM; 7: 11.8 µM

----------
Tested on: U251 CNS
Test: NCI tumour cell line growth inhibition, 48 h
Where a SMILES comes first, the peptide text is derived from it. The star is where a group is joined. Boc = CC(C)(C)OC(=O)*; OSu = O=C1CCC(=O)N1O*
measurement.kind: TGI

As a guide, the following entries are already answered.
>  <compound>
Cc1nn(-c2ccc(F)cc2)c2ncnc(Nc3ccc(NC(=O)Nc4ccc(Cl)c(C(F)(F)F)c4)cc3)c12

>  <study.target>
U251 CNS

>  <TGI>
3.62 µM

$$$$
>  <compound>
c1sc(NC2=NCCO2)c2c1CCCC2

>  <study.target>
U251 CNS

>  <TGI>
> 100 µM

$$$$
>  <compound>
Oc1ccccc1/C=N/Nc1ccc2ccccc2n1

>  <study.target>
U251 CNS

>  <TGI>
31.5 µM

$$$$
>  <compound>
CC(=O)OCC1OC(O[C@@H]2C[C@H]3C(C)(C)[C@H](OC(C)=O)CC[C@]3(C)[C@H]3CCC4=C([C@@H](C)C[C@@H](O)[C@H](O)C(C)(C)O)CC[C@@]4(C)[C@@]32C)C(O)C(O)C1O (stereo partly drawn)

>  <study.target>
U251 CNS

>  <TGI>
28 µM

$$$$
>  <compound>
CCN(CC)CCOC(c1cc(OC)ccc1OC)c1ccc2n1-c1ccccc1OC2 (stereo not drawn)

>  <study.target>
U251 CNS

>  <TGI>
28.1 µM

$$$$

Provide the reported TGI of each entry below, same order.
1. O=C(Cc1nc2ccc(C(=O)c3ccccc3)cc2[nH]c1=O)C(=O)Nc1ccc(Br)cc1
2. COC1OC(=O)[C@H]2O[N+]([O-])=C(C)[C@@H]12 (stereo partly drawn)
3. CCOC(=O)c1cc(=C2\CCN(CC(C)CC)C2=S)/c(=C(/O)CC)[nH]1 (stereo not drawn)
4. CCN1CCN(c2nc(NCCCNc3ccnc4cc(Cl)ccc34)c3ccccc3n2)CC1

Resp:
1. > 100 µM
2. > 100 µM
3. 26.5 µM
4. 7.17 µM

Provide the reported TGI of each entry below, same order.
1. C=C1C(O)C2CCC(C)(C)C(=O)C2=C(CC(C)C)C12CC2 (stereo not drawn)
2. CC(=O)[CH-]C(=O)c1ccccc1.CC(=O)[CH-]C(=O)c1ccccc1.CCCCCCCCCCCCCCCCCC(=O)[O-].CCCCCCCCCCCCCCCCCC(=O)[O-].[Ti+4]
3. COc1cc2oc(-c3ccc(O)cc3)c(OC3OC(C)C(O)C(O)C3O)c(=O)c2c(O)c1OC (stereo not drawn)
4. CC[C@@H]1CC[C@@H]2[C@H](CC[C@]3(C)[C@@H](O)CC[C@@H]23)[C@H]1C(=O)O
5. Cc1cc2c(c(C(=O)NCCC(=O)O)c1)Oc1c(cc(C)cc1C(=O)NCCC(=O)O)S2
6. FC(F)(F)c1nc(-c2ccccc2Cl)[nH]c1C(F)(F)F
7. COc1cc2c(c3c1C=CCO3)C(=O)c1ccccc1C2=O
8. COc1cccc(/C=C/C(=O)c2cc3c(N)c(C(=O)Nc4ccccc4C)sc3nc2C)c1

Resp:
["> 100 µM", "41.4 µM", "> 100 µM", "> 100 µM", "> 100 µM", "3.08 µM", "> 100 µM", "1.81 µM"]

Provide the reported TGI of each entry below, same order.
1. Cc1sc2nc3n(c(=O)c2c1C)N=CN(c1ccccc1)C3
2. CC(C)(C)OC(=O)NC(Cc1ccc(O)cc1)C(=O)NC(CCCCN)C(=O)NC(Cc1ccc(O)cc1)C(=O)NC(CCCCN)C(=O)ON1C(=O)CCC1=O (stereo not drawn) (Boc-YKYK-OSu; configuration not given here)
3. C/C(=N\NC(=S)NC(C)C)c1nc2ncccc2[nH]1
4. C[C@]12OC[C@H](c3ccccc3)N1C(=O)C1[C@H]2CC12SCCS2 (stereo partly drawn)
5. Nc1ccccc1Nc1ccccc1C(=O)[O-].Nc1ccccc1Nc1ccccc1C(=O)[O-].[Cu+2]

Resp:
["> 100 µM", "> 100 µM", "> 100 µM", "> 100 µM", "> 100 µM"]

Provide the reported TGI of each entry below, same order.
1. N#Cc1c(NC(=O)c2cccc(C(F)(F)F)c2)sc2c1CCC(=O)C2
2. COc1ccc(/C(=C/n2ccnc2)C(=O)c2ccc(OC)c(OC)c2)cc1
3. O=C(NS(=O)(=O)Nc1ccc(Cl)cc1)OCc1ccc(Cl)cc1Cl
4. C[C@@H]1CC[C@@H]2[C@@H]1[C@H](OC(=O)/C=C/c1ccccc1)[C@]1(c3ccccc3)C[C@@H](OC(=O)CO)[C@@]2(C)O1
5. CC(=O)OC1=C2CC3(C)OC(=O)CC(C)(C)C3=CC=C2C=C(C(C)C)C1=O (stereo not drawn)
6. C#Cc1cnc(=O)n(C2CC(O)C(CO)O2)c1 (stereo not drawn)
7. N#CC1(c2nc3ccccc3o2)C(=O)C(=O)N(C2C3CC4CC(C3)CC2C4)C(=O)C1=O (stereo not drawn)
8. CSC1=Nc2ccccc2N(C)c2c1c(-c1ccccc1)nn2C

Resp:
["1.58 µM", "> 100 µM", "66.7 µM", "29.3 µM", "2.99 µM", "> 100 µM", "> 100 µM", "> 100 µM"]
